system: BDF1 mice, L1210 terephthalanilide-resistant leukemia ip, survival T/C; test: NCI In Vivo Anticancer Drug Screen. Data for tumor model L1210 Leukemia resistant to A Terephthalanilide; NSC 38280 (intraperitoneal) in B6D2F1 (BDF1) mice; conditions: endpoint: mean survival time; dose: 37.5 mg/kg/injection; schedule: Q01DX Z (ip); vehicle: carboxymethylcellulose (CMC)
Inconclusive results and toxic doses are left out. How the source made its calls: active means survival T/C of 150% or more; inactive means T/C below 125% in these data.
Outcome (select one): active, inactive

Please review the following examples before continuing.
Clc1ncnc2nc[nH]c12
inactive
Cn1c(N)nc2nc[nH]c2c1=S
active
O=C1C(NC(=O)C2CCCCC2)=C(N2CC2)C(=O)C(NC(=O)C2CCCCC2)=C1N1CC1
inactive
CN(C)c1ccc(/C=C\c2ccnc3ccccc23)cc1
inactive
Cc1cc(N(CCCl)CCCl)ccc1N=Nc1ccccc1C(=O)O
inactive

Q: What outcome does the record of this test show for `c1ccc(CNc2ncnc3[nH]ncc23)cc1` ?
A: inactive
